Test system: SK-MEL-28 melanoma
Assay: NCI-60 one-dose screen, 48 h (100 = growth as untreated, 0 = no growth, -100 = all killed)
Conditions: 10 µM unless noted
This is part of a sample that, as a whole, favours compounds with a hit. Of some 83,000 tested, about 20% had one in any assay.
Checkbox rule: growth lower than 60% = T; growth not lower than 60% = F.

> print(dat)
                                        mol  qualitative.label
1   COc1ccc(/C=C2\COc3ccc(O)cc3C2=O)c(OC)c1                  F
2  Cl.Fc1c[c-]c(-c2ccccn2)c(F)c1.[Pt].c1ccc([PH+](c2ccccc2)c2ccccc2[PH+](c2ccccc2)c2ccccc2)cc1                  T
3           NC(N)=N/N=C(/c1ccccc1)c1ccccc1F                  F
4  CN(C)CN1CCN(c2ccc3nc(-c4ccc5nc(-c6ccc(C(F)(F)F)cc6)[nH]c5c4)[nH]c3c2)CC1                  T

----------
Tested on: SR leukemia
Test: NCI-60 one-dose screen, 48 h
Details: 10 µM unless noted
This is part of a sample that, as a whole, favours compounds with a hit. Of some 83,000 tested, about 20% had one in any assay. Active and inactive are the calls of the source. The calls were made as follows: active = growth percent below 10; inactive = the rest.
Outcome codes: 1 (active), 0 (inactive)

Molecule	Qualitative label
COc1ccc(-c2cc(-c3cc(OC)ccc3O)[nH]c(=O)c2C#N)cc1	0
Cc1[nH]c(-c2nc3ccccc3[nH]2)c(C)c1C(=O)NNc1ccc(Cl)cc1	0
COc1cc(CNC(=O)/C=C/C=C/c2ccc3c(c2)OCO3)ccc1OCc1cn(-c2ccc(Cl)c(Cl)c2)nn1	0
CN1CCN(C2=C(Cl)C(=O)c3ccccc3C2=O)CC1	0
COc1cc2c(cc1OC)-c1ccc3cc4c(cc3c1N(CCN(C)C)C2)OCO4	1
O=C1Nc2ccccc2SC1c1ccccc1Cl (configuration not stated)	0
COc1cc(C2C=C(c3cccc(NC(C)=O)c3)Nc3ncnn32)cc(OC)c1OC (configuration not stated)	1
COc1cc(-c2ncn(/C=C\c3nnco3)n2)cc(C(F)(F)F)c1	1
COc1ccc(/C(C)=C(\c2ccc(Cl)cc2)c2ccc(OCCN(C)C)cc2)cc1F	1
CN(C)c1ccc2cc(-c3ccc(Cl)c(Cl)c3)c(N)nc2c1	1
O=C(Nc1ccccc1Cl)OCCN1CCOCC1	0
O=c1cc(-c2ccc(OCc3ccccc3)cc2)oc2c(I)c(OCc3ccccc3)cc(OCc3ccccc3)c12	0
CSc1nc2sc3cc(Cl)ccc3n2c(=N)c1C#N	0
COc1ccc(/C=C2\COc3ccc(O)c(O)c3C2=O)c(OC)c1	0
CCc1cc(Cc2cc(CC)cc(C(C)(C)C)c2O)c(O)c(C(C)(C)C)c1	1
CCn1c(Sc2nnc(NC(C)=O)s2)nc2c1c(=O)n(C)c(=O)n2C	0
Cc1nc(Nc2ccc(N)cc2)c2ccccc2n1	0
Cc1ccc(NC(=O)C(Cl)Cl)cc1	0
CC(/C=N/NC(=O)c1cc(-c2ccco2)[nH]n1)=C\c1ccccc1	0
COc1ccc(/C(C)=C(\c2ccc(Cl)cc2)c2ccc(OCCN3CCCC3)cc2)cc1F	1
C=C1C(=O)O[C@H]2[C@H]1CC/C(C(=O)NCCCCCCCCNC(=O)/C1=C/CC[C@@]3(C)O[C@H]3[C@H]3OC(=O)C(=C)[C@@H]3CC1)=C\CC[C@@]1(C)O[C@@H]21	0
COc1ccc(OC)c(/C=C2\COc3ccc(O)cc3C2=O)c1	0
NS(=O)(=O)Oc1ccc(NC(=O)C23CC4CC(CC(C4)C2)C3)cc1Cl	0
CCCCCCCC/C=C/CCCCCCCC1=NCC[N+]1(CCO)CCO	0
CNC(=O)c1cc(Oc2ccc3nc(Nc4cc(Cl)cc(Cl)c4)ccc3c2)ccn1	1
C[C@@H]1C(=O)N(C[C@H](Cc2ccccc2)NC(=O)OCc2ccccc2)[C@]1(Cc1ccccc1)C(=O)OC(C)(C)C	0
O=C(Oc1ccc[nH]c1=O)c1cc([N+](=O)[O-])cc([N+](=O)[O-])c1	0
Cc1cc(=O)c2cc3nc(-c4cccnc4)oc3c(Br)c2o1	0
O=C(/C=C/C12c3ccccc3C(c3ccccc31)C1C(=O)NC(=O)C12)c1ccccc1 (configuration not stated)	0
N#Cc1c(NC(=O)c2ccc(Br)cc2)sc2c1CCCC2	0
COc1ccc(/C=C2\COc3ccc(O)cc3C2=O)c(OC)c1	0
CNC=O	0
CN(C)CCN1C(=O)c2cccc3c(-c4ccc(-c5nc6c7ccccc7c7ccccc7c6[nH]5)cc4)ccc(c23)C1=O	0
O=C1Nc2ccccc2/C1=N/N=C/c1ccc(OC2OC(CO)C(O)C(O)C2O)cc1 (configuration not stated)	0
COc1c(C)cnc(CSc2nc(-c3ccc(C)cc3)cn2-c2ccc(Cl)cc2)c1C	0
O=S(=O)(Cc1ccccc1)c1nc2ccccc2s1	0
Nc1c(-c2nc3ccccc3c(=O)[nH]2)nnn1-c1ccc(Cl)cc1	0
CCN(CC)CCOC(=O)N1c2ccccc2Sc2ccccc21	0
N#Cc1c(-c2ccc(C(F)(F)F)cc2)cc(N2CC(O)C2)n2c1nc1ccccc12	0
CCn1c(Sc2nnc(Nc3ccccc3)s2)nc2c1c(=O)n(C)c(=O)n2C	0
CCOC(=O)c1cnn2c(-c3ccc(Cl)cc3)nc(NCc3ccccc3)nc12	0
CCCCCCCCn1cc(C2=C(c3coc4ccc(OC)cc34)C(=O)NC2=O)c2ccccc21	0
